Measured values drawn from patent US10810329B2 for this set.

system: Escherichia coli strain (ATCC 25922); format: cell-based
Peptide text beside a SMILES is read from it.
PROPERTY_LABEL: MIC in LYM medium, NaCl 50
# output: numeric value plus its unit

The examples below pair each entry with its known result.
- MOLECULE: "CC(C)C[C@H](NC(=O)[C@H](Cc1c[nH]c2ccccc12)NC(=O)[C@H](CCCCN)NC(=O)[C@H](CC(C)C)NC(=O)[C@H](Cc1c[nH]c2ccccc12)NC(=O)[C@H](CCCCN)NC(=O)[C@H](CC(C)C)NC(=O)[C@H](Cc1c[nH]c2ccccc12)NC(=O)[C@H](CCCCN)NC(=O)[C@H](CCCCN)NC(=O)[C@H](CCCCN)NC(=O)[C@@H](N)CCCCN)C(=O)N[C@@H](CCCCN)C(=O)O [SEQ ID NO. 12, KKKKWLKWLKWLK] (H-KKKKWLKWLKWLK-OH)"
  MIC in LYM medium, NaCl 50: "1.56 µg/mL"
- MOLECULE: "CC(C)C[C@H](NC(=O)[C@H](Cc1c[nH]c2ccccc12)NC(=O)[C@H](CCCCN)NC(=O)[C@H](CC(C)C)NC(=O)[C@H](Cc1c[nH]c2ccccc12)NC(=O)[C@H](CCCCN)NC(=O)[C@H](CC(C)C)NC(=O)[C@H](Cc1c[nH]c2ccccc12)NC(=O)[C@@H](N)CCCCN)C(=O)N[C@@H](CCCCN)C(=O)N[C@@H](CCCCN)C(=O)N[C@@H](CCCCN)C(=O)N[C@@H](CCCCN)C(=O)O [SEQ ID NO. 2, KWLKWLKWLKKKK] (H-KWLKWLKWLKKKK-OH; N-terminus and C-terminus assumed)"
  MIC in LYM medium, NaCl 50: "1.56 µg/mL"
- MOLECULE: "CC(C)C[C@H](NC(=O)[C@H](Cc1c[nH]c2ccccc12)NC(=O)[C@H](CCCCN)NC(=O)[C@H](CC(C)C)NC(=O)[C@H](Cc1c[nH]c2ccccc12)NC(=O)[C@H](CCCCN)NC(=O)[C@H](CC(C)C)NC(=O)[C@H](Cc1c[nH]c2ccccc12)NC(=O)[C@H](CCCCN)NC(=O)[C@H](CCCCN)NC(=O)[C@@H](N)CCCCN)C(=O)N[C@@H](CCCCN)C(=O)N[C@@H](CCCCN)C(=O)O [SEQ ID NO. 13, KKKWLKWLKWLKK] (H-KKKWLKWLKWLKK-OH; N-terminus and C-terminus assumed)"
  MIC in LYM medium, NaCl 50: "3.13 µg/mL"
- MOLECULE: "CC(C)C[C@H](NC(=O)[C@H](Cc1c[nH]c2ccccc12)NC(=O)[C@H](CCCCN)NC(=O)[C@H](CC(C)C)NC(=O)[C@H](Cc1c[nH]c2ccccc12)NC(=O)[C@H](CCCCN)NC(=O)[C@H](CCCCN)NC(=O)[C@H](CCCCN)NC(=O)[C@H](CCCCN)NC(=O)[C@H](CCCCN)NC(=O)[C@@H](N)CC(C)C)C(=O)N[C@@H](CCCCN)C(=O)N[C@@H](Cc1c[nH]c2ccccc12)C(=O)O [SEQ ID NO. 10, LKKKKKWLKWLKW] (H-LKKKKKWLKWLKW-OH; N-terminus and C-terminus assumed)"
  MIC in LYM medium, NaCl 50: "3.13 µg/mL"
- MOLECULE: "CC(C)C[C@H](NC(=O)[C@H](Cc1c[nH]c2ccccc12)NC(=O)[C@H](CCCCN)NC(=O)[C@H](CCCCN)NC(=O)[C@H](CCCCN)NC(=O)[C@H](CCCCN)NC(=O)[C@H](CCCCN)NC(=O)[C@H](CC(C)C)NC(=O)[C@H](Cc1c[nH]c2ccccc12)NC(=O)[C@H](CCCCN)NC(=O)[C@H](CC(C)C)NC(=O)[C@@H](N)Cc1c[nH]c2ccccc12)C(=O)N[C@@H](CCCCN)C(=O)O [SEQ ID NO. 6, WLKWLKKKKKWLK] (H-WLKWLKKKKKWLK-OH; N-terminus and C-terminus assumed)"
  MIC in LYM medium, NaCl 50: "3.13 µg/mL"
- MOLECULE: "CC(C)C[C@H](NC(=O)[C@H](Cc1c[nH]c2ccccc12)NC(=O)[C@H](CCCCN)NC(=O)[C@H](CC(C)C)NC(=O)[C@H](Cc1c[nH]c2ccccc12)NC(=O)[C@H](CCCCN)NC(=O)[C@H](CC(C)C)NC(=O)[C@@H](N)Cc1c[nH]c2ccccc12)C(=O)N[C@@H](CCCCN)C(=O)N[C@@H](CCCCN)C(=O)N[C@@H](CCCCN)C(=O)N[C@@H](CCCCN)C(=O)N[C@@H](CCCCN)C(=O)O [SEQ ID NO. 3, WLKWLKWLKKKKK] (H-WLKWLKWLKKKKK-OH; N-terminus and C-terminus assumed)"
  MIC in LYM medium, NaCl 50: "3.13 µg/mL"
- MOLECULE: "CC(C)C[C@H](NC(=O)[C@H](Cc1c[nH]c2ccccc12)NC(=O)[C@H](CCCCN)NC(=O)[C@H](CC(C)C)NC(=O)[C@H](Cc1c[nH]c2ccccc12)NC(=O)[C@H](CCCCN)NC(=O)[C@H](CC(C)C)NC(=O)[C@H](Cc1c[nH]c2ccccc12)NC(=O)[C@H](CCCCN)NC(=O)[C@H](CCCCN)NC(=O)[C@H](CCCCN)NC(=O)[C@H](CCCCN)NC(=O)[C@@H](N)CCCCN)C(=O)O [SEQ ID NO. 11, KKKKKWLKWLKWL] (H-KKKKKWLKWLKWL-OH; N-terminus and C-terminus assumed)"
  MIC in LYM medium, NaCl 50: "1.56 µg/mL"

Pending molecule:
Query: Provide measured MIC in LYM medium, NaCl 50 value, entry: CC(C)C[C@H](NC(=O)[C@H](Cc1c[nH]c2ccccc12)NC(=O)[C@H](CCCCN)NC(=O)[C@H](CCCCN)NC(=O)[C@H](CCCCN)NC(=O)[C@H](CCCCN)NC(=O)[C@H](CCCCN)NC(=O)[C@H](CC(C)C)NC(=O)[C@H](Cc1c[nH]c2ccccc12)NC(=O)[C@H](CCCCN)NC(=O)[C@@H](N)CC(C)C)C(=O)N[C@@H](CCCCN)C(=O)N[C@@H](Cc1c[nH]c2ccccc12)C(=O)O [SEQ ID NO. 7, LKWLKKKKKWLKW] (H-LKWLKKKKKWLKW-OH; N-terminus and C-terminus assumed)
Reply: 3.13 µg/mL

----------
system: Escherichia coli strain (ATCC 25922); assay type: cell-based
Peptide text beside a SMILES is read from it.
Each record here notes measured MIC in LYM medium, NaCl 50.
Kindly answer with a numeric value in µg/mL, unit omitted.

Solved cases below.
- COMPOUND: "CC(C)C[C@H](NC(=O)[C@H](Cc1c[nH]c2ccccc12)NC(=O)[C@H](CCCCN)NC(=O)[C@H](CCCCN)NC(=O)[C@H](CCCCN)NC(=O)[C@H](CCCCN)NC(=O)[C@H](CCCCN)NC(=O)[C@H](CC(C)C)NC(=O)[C@H](Cc1c[nH]c2ccccc12)NC(=O)[C@H](CCCCN)NC(=O)[C@H](CC(C)C)NC(=O)[C@H](Cc1c[nH]c2ccccc12)NC(=O)[C@@H](N)CCCCN)C(=O)O [SEQ ID NO. 5, KWLKWLKKKKKWL] (H-KWLKWLKKKKKWL-OH; N-terminus and C-terminus assumed)"
  MIC in LYM medium, NaCl 50 / µg/mL: 3.13
- COMPOUND: "CC(C)C[C@H](NC(=O)[C@H](Cc1c[nH]c2ccccc12)NC(=O)[C@H](CCCCN)NC(=O)[C@H](CC(C)C)NC(=O)[C@H](Cc1c[nH]c2ccccc12)NC(=O)[C@H](CCCCN)NC(=O)[C@H](CC(C)C)NC(=O)[C@H](Cc1c[nH]c2ccccc12)NC(=O)[C@H](CCCCN)NC(=O)[C@@H](N)CCCCN)C(=O)N[C@@H](CCCCN)C(=O)N[C@@H](CCCCN)C(=O)N[C@@H](CCCCN)C(=O)O [SEQ ID NO. 1, KKWLKWLKWLKKK, reference compound] (H-KKWLKWLKWLKKK-OH; N-terminus and C-terminus assumed)"
  MIC in LYM medium, NaCl 50 / µg/mL: 1.56

Note: attention shifts to another entry.
Query: Identify the reported MIC in LYM medium, NaCl 50 for the following entry. CC(C)C[C@H](NC(=O)[C@H](Cc1c[nH]c2ccccc12)NC(=O)[C@H](CCCCN)NC(=O)[C@H](CC(C)C)NC(=O)[C@H](Cc1c[nH]c2ccccc12)NC(=O)[C@H](CCCCN)NC(=O)[C@H](CCCCN)NC(=O)[C@H](CCCCN)NC(=O)[C@H](CCCCN)NC(=O)[C@H](CCCCN)NC(=O)[C@H](CC(C)C)NC(=O)[C@@H](N)Cc1c[nH]c2ccccc12)C(=O)N[C@@H](CCCCN)C(=O)O [SEQ ID NO. 9, WLKKKKKWLKWLK] (H-WLKKKKKWLKWLK-OH; N-terminus and C-terminus assumed)
Reply: 3.13
